Biological target: human 5-HT1A receptor (Homo sapiens, UniProt P08908)
Sequence (P08908 1-422): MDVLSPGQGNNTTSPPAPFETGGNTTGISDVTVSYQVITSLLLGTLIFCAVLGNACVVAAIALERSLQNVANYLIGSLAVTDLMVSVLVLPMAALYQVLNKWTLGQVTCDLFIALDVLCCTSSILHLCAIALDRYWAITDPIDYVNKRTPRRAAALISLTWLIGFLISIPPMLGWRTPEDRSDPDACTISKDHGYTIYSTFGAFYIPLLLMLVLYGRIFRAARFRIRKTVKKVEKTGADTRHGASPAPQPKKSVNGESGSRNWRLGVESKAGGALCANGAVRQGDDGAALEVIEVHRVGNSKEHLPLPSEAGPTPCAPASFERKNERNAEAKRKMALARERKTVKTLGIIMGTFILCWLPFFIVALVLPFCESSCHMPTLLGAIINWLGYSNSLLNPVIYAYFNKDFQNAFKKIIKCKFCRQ
Assay: Agonist activity: reversal of forskolin stimulation of cAMP
Details: reversal of forskolin-stimulated cAMP; CHO cells stably transfected with the human 5-HT1A receptor; RIA
pEC50: −log10 of the molar value.
recorded_endpoint: pEC50

| compound | target_system | pEC50 |
| --- | --- | --- |
| COc1ccccc1N1CCN(C[C@@H](Cc2ccncc2)NC(=O)C2CCCCC2)CC1 [Example 9] | human 5-HT1A receptor (Homo sapiens, UniProt P08908) | 6.85 |

[a] CC1(C(=O)N[C@H](Cc2ccncc2)CN2CCN(c3cccc4c3OCCO4)CC2)CCCCC1 [Example 23]
[b] CC1(C(=O)N[C@H](Cc2cccnc2)CN2CCN(c3cccc4c3OCCO4)CC2)CCCCC1 [Example 22]
[c] COc1ccccc1N1CCN(C[C@@H](Cc2cccnc2)NC(=O)C2CCCCC2)CC1 [Example 4]
[d] COc1ccccc1N1CCN(C[C@@H](Cc2ccccn2)NC(=O)C2CCCCC2)CC1 [Example 14]
Ranking field: pEC50; order: falling. Please respond by ranking the labels in the order requested.
b, c, d, a
